molecular target: rat PepT2 (Rattus norvegicus); construct: His-tagged GFP (C, cleaved yes); made in house; host or cells: HEK293F cells; experiment: Inhibition of uptake of radioactive di-alanine peptide into PepT2 proteoliposomes (IC50); format: biochemical; conditions: rat PepT2 in liposomes, inhibition of 3H di-alanine uptake; read-out: IC50
parameter: pIC50
Scale for pIC50: -log10 of concentration given in mol/L; no unit attached.

Bench note, rat PepT2 (Rattus norvegicus): Nc1nc(/C(=C/CC(=O)O)C(=O)N[C@@H]2C(=O)N3C(C(=O)O)=CCS[C@H]23)cs1 , pIC50 reads 3.00

* * *

Some compounds, each annotated with its measured Counterflow activity relative to L-Ala-L-Ala.
target: rat PepT2 (Rattus norvegicus, UniProt Q63424); construct: His-tagged GFP (C, cleaved yes); made in house; host or cells: HEK293F cells; test: Counterflow transport assay in PepT2 proteoliposomes; type: biochemical; settings: 5 min; Supplementary Table 2, RnPepT2 reconstituted liposome assay; read-out: Counterflow activity relative to L-Ala-L-Ala
Sequence (Q63424 whole entry): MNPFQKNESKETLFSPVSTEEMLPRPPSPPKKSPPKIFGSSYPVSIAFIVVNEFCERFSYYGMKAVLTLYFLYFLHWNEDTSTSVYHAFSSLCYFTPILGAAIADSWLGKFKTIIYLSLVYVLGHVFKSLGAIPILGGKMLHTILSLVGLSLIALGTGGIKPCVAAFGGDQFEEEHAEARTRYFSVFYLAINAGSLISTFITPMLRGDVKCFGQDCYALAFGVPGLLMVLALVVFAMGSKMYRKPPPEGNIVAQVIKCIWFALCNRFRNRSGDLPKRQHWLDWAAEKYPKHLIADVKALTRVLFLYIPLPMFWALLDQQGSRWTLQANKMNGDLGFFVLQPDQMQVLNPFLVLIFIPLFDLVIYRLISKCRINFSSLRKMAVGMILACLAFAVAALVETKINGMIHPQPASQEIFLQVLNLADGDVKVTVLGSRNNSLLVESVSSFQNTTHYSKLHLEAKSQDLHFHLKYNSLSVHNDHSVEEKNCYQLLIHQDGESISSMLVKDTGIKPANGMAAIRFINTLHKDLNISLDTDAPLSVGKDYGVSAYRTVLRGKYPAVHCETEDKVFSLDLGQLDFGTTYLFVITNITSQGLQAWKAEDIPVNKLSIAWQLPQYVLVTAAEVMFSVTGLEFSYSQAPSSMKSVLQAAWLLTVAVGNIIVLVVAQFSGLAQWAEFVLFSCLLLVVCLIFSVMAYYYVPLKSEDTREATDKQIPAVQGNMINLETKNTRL
Number only, in %; omit the unit.

compound: Nc1nc(/C(=C/CC(=O)O)C(=O)N[C@@H]2C(=O)N3C(C(=O)O)=CCS[C@H]23)cs1
assay.system: rat PepT2 (Rattus norvegicus, UniProt Q63424)
recorded.measurement: 0
//
compound: CC1=C(C(=O)O)N2C(=O)[C@@H](NC(=O)[C@H](N)c3ccc(O)cc3)[C@H]2SC1
assay.system: rat PepT2 (Rattus norvegicus, UniProt Q63424)
recorded.measurement: 120
//
compound: CO[C@@]1(NC(=O)C(C(=O)O)c2ccc(O)cc2)C(=O)N2C(C(=O)O)=C(CSc3nnnn3C)CO[C@@H]21 (stereo partly shown)
assay.system: rat PepT2 (Rattus norvegicus, UniProt Q63424)
recorded.measurement: 0

# context switch: different compound, same Counterflow activity relative to L-Ala-L-Ala
Bench note, rat PepT2 (Rattus norvegicus, UniProt Q63424): N[C@@H](C(=O)N[C@@H]1C(=O)N2C(C(=O)O)=C(Cl)CS[C@H]12)c1ccccc1 , Counterflow activity relative to L-Ala-L-Ala reads 76

* * *

target: rat PepT2 (Rattus norvegicus); construct: His-tagged GFP (C, cleaved yes); made in house; host or cells: HEK293F cells; assay: Counterflow transport assay in PepT2 proteoliposomes; assay type: biochemical; conditions: 5 min; Supplementary Table 2, RnPepT2 reconstituted liposome assay; read-out: Counterflow activity relative to L-Ala-L-Ala
parameter: Counterflow activity relative to L-Ala-L-Ala
# do not omit the unit; it follows the number

smiles.notation: CC1(C)S[C@@H]2[C@H](NC(=O)Cc3ccccc3)C(=O)N2[C@H]1C(=O)O
recorded.measurement: 0%

Field Counterflow activity relative to L-Ala-L-Ala (entry Cc1onc(-c2ccccc2Cl)c1C(=O)N[C@@H]1C(=O)N2[C@@H]1SC(C)(C)[C@@H]2C(=O)O ) reads 0%

Field Counterflow activity relative to L-Ala-L-Ala (entry CC1(C)S[C@@H]2[C@H](NC(=O)[C@H](N)c3ccc(O)cc3)C(=O)N2[C@H]1C(=O)O ) reads 33%

* * *

biological target: rat PepT2 (Rattus norvegicus); construct: His-tagged GFP (C, cleaved yes); made in house; host or cells: HEK293F cells; test: Counterflow transport assay in PepT2 proteoliposomes; type: biochemical; details: result in words; cloxacillin also at 10 mM
parameter: Ability to drive transport in counterflow

compound: CC1(C)S[C@@H]2[C@H](NC(=O)Cc3ccccc3)C(=O)N2[C@H]1C(=O)O [Benzylpenicillin, benzylpenicillin]
recorded.measurement: cannot transport
//
compound: CO[C@@]1(NC(=O)C(C(=O)O)c2ccc(O)cc2)C(=O)N2C(C(=O)O)=C(CSc3nnnn3C)CO[C@@H]21 (some centres unmarked) [Moxalactam, moxalactam]
recorded.measurement: cannot transport
//
compound: Nc1nc(/C(=C/CC(=O)O)C(=O)N[C@@H]2C(=O)N3C(C(=O)O)=CCS[C@H]23)cs1 [Ceftibuten, ceftibuten]
recorded.measurement: cannot transport
